Parameter: Kd. Scope: all listed entries.
Biological target: T1, EsCas13d, nuclease-dead (Eubacterium siraeum, UniProt B0MS50, R295A;H300A;R849A;H854A)
T1 sequence: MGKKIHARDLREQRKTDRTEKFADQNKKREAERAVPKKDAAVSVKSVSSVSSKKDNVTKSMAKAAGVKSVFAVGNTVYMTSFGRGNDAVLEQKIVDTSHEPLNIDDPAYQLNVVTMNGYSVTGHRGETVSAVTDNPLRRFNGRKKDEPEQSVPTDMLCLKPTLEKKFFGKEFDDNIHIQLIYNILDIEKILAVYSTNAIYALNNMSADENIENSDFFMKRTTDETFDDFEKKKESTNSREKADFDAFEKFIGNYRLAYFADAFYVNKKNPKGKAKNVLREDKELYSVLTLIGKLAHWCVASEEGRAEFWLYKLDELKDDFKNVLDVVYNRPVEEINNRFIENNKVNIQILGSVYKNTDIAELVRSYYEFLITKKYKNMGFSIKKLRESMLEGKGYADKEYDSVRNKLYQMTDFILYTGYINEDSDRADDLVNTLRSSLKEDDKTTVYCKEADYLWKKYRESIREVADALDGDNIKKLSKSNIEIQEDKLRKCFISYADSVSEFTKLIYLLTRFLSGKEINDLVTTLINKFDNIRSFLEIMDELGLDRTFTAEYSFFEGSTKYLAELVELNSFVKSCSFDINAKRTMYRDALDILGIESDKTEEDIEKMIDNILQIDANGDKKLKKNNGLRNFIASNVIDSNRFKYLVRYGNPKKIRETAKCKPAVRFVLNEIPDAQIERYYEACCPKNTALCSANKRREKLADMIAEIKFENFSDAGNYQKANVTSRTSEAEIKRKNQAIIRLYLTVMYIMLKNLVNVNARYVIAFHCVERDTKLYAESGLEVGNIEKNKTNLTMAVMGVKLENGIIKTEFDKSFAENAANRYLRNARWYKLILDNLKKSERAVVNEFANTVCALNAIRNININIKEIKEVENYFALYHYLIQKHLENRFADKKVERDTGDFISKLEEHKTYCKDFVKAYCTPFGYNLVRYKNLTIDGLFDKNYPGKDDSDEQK
Assay: crRNA (strand 1, pre-loaded); Mg2+; 40 mM Tris-HCl pH 7.5, 150 mM NaCl, 6 mM MgCl2, 1 mM DTT, 0.1% Tween-20, 0.2 mg/ml BSA; 25 C; 10 min per concentration, then washed
Details: tags: His6-TwinStrep-SUMO cleaved; N-terminal SNAP kept (SNAP-Surface 488); label: 3' end held by stalled T7 RNA polymerase
Endpoint Name: Kd (nM)

- Binder: "target 2 MT 5'PFS CUG 3'PFS CAC (mixed) RNA 1: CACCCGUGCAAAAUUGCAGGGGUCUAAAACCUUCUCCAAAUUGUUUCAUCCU RNA 2: GGGAAUGGAUCCACAUCUACGAAUUCCUGAGGAUGAAACAAUUUGGAGAAGCACAGAUCGGAAGAGCACACGU"
  Endpoint Name: "Kd"
  Experimental Result: 3.7
- Binder: "target 1 MT 5'PFS GUA 3'PFS AAG (mixed) RNA 1: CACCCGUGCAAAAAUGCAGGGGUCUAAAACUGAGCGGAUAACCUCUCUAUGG RNA 2: GGGAAUGGAUCCACAUCUACGAAUUCGUACCAUAGAGAGGUUAUCCGCUCAAAGAGAUCGGAAGAGCACACGU"
  Endpoint Name: "Kd"
  Experimental Result: 19.1
- Binder: "target 2 MT 5'PFS UCA 3'PFS AAU (mixed) RNA 1: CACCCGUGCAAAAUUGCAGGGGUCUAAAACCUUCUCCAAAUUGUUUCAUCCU RNA 2: GGGAAUGGAUCCACAUCUACGAAUUCUCAAGGAUGAAACAAUUUGGAGAAGAAUAGAUCGGAAGAGCACACGU"
  Endpoint Name: "Kd"
  Experimental Result: 5.2
- Binder: "target 1 del5 (mixed) RNA 1: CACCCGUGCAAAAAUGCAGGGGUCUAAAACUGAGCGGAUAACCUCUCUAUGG RNA 2: GGGAAUGGAUCCACAUCUACGAAUUCGUACCAUAGAGAGGUUAUCCCUCACCGAGAUCGGAAGAGCACACGU"
  Endpoint Name: "Kd"
  Experimental Result: 10.4
